// values below are reported GI50
System: SK-MEL-5
Assay: NCI tumour cell line growth inhibition, 48 h
The source made the active and inactive calls. Cut-off read from the data, not from the text of the source: active = GI50 up to about 1.1 µM and inactive = higher.

| Molecule | Assayed target | GI50 |
| --- | --- | --- |
| CC(=O)CC(=O)N1CCSC1=S | SK-MEL-5 | > 10 µM (inactive) |
| Cn1nc2ccc([N+](=O)[O-])c(Cn3nnc4ccccc43)c2n1 | SK-MEL-5 | 79.4 µM (inactive) |
| O=c1c2c3c(sc2nc(S)n1-c1ccccc1)CCCc1ccc([N+](=O)[O-])cc1-3 | SK-MEL-5 | 25.7 µM (inactive) |
| CCOC(=O)OC1(c2ccccc2)CCN(C)CC1 | SK-MEL-5 | > 100 µM (inactive) |
| O=C1CC(n2cccc2)c2cc(Br)sc21 (configuration not stated) | SK-MEL-5 | > 100 µM (inactive) |
| CC1=CC2c3cccc4[nH]cc(c34)CC2N(C)C1 (configuration not stated) | SK-MEL-5 | > 76.9 µM (inactive) |
| O=NN(CCCl)C(=O)NCc1ccc[n+]([O-])c1 | SK-MEL-5 | > 100 µM (inactive) |
| COc1cccc2nc3cc(C)c(C)cc3nc12 | SK-MEL-5 | 97.5 µM (inactive) |
| N#Cc1ccc(-c2nc3c(N)ncnc3o2)cc1 | SK-MEL-5 | > 100 µM (inactive) |
| Cc1ccccc1OCC(COC(=O)Nc1ccccc1)OC(=O)Nc1ccccc1 (configuration not stated) | SK-MEL-5 | > 100 µM (inactive) |
| Nc1nc(Sc2ccc([N+](=O)[O-])c3nonc23)c2nc[nH]c2n1 | SK-MEL-5 | 2.15 µM (inactive) |
| CN(C)N1C(=O)CC2(CCN(CCCC(=O)c3ccc(F)cc3)CC2)C1=O | SK-MEL-5 | > 100 µM (inactive) |

====

System: MCF7
Assay: NCI tumour cell line growth inhibition, 48 h
Calls of active or inactive are those of the source. Cut-off read from the data, not from the text of the source: active = GI50 up to about 1.1 µM and inactive = higher.
Labels: active, inactive

| Compound | Class label |
| --- | --- |
| Cc1ccc(C2(c3ccc(C)cc3)SC(=C(C#N)C#N)c3ccccc32)cc1 | inactive |
| O=C(OC1C2OC(=O)c3cc(O)c(O)c(O)c3Oc3cc4c(c(O)c3O)-c3c(cc(O)c(O)c3O)C(=O)OCC3OC(O)C(OC(=O)c5cc(O)c(O)c(O)c5Oc5cc6c(c(O)c5O)-c5c(cc(O)c(O)c5O)C(=O)OC1C(COC6=O)OC2O)C(OC(=O)c1cc(O)c(O)c(O)c1)C3OC4=O)c1cc(O)c(O)c(O)c1 (stereo unspecified) | inactive |
| CC12CCC(C(Br)(Br)C1=O)C2(C)C (stereo unspecified) | active |
| CO[C@H]1[C@@H](O)[C@@H](C)O[C@@H](O[C@H]2CC[C@@]3(C)[C@H](CC[C@@H]4[C@@H]3CC[C@]3(C)[C@@H](C5=CC(=O)OC5)[C@@H](OC(C)=O)C[C@]43O)C2)[C@@H]1O [NERITALOSIDE] | active |
| COc1ccccc1/C=C/C1=NN(c2cccc(S(=O)(=O)O)c2)C2(C1)SCC(=O)N2c1nc2ccccc2s1 (stereo unspecified) | inactive |
| S=C1Cc2c([nH]c3ccccc23)-c2ccccc2N1 | inactive |

====

Test system: UACC-257
Experiment: NCI tumour cell line growth inhibition, 48 h
Active and inactive are the calls of the source. Cut-off read from the data, not from the text of the source: active = GI50 up to about 1.1 µM and inactive = higher.
Labels: Yes = active, No = inactive

| Compound | Class label |
| --- | --- |
| O=C(O)C1=NN(c2ccc(S(=O)(=O)O)cc2)C2(C1)C(Cl)C(=O)N2c1nc2ccccc2s1 (stereo not given) | No |
| COc1cc(OC)c(OC)cc1/C=C/c1cnnc2ccccc12 | No |
| CC1C(c2ccccc2O)c2cc3c(cc2OC1N1CCCC1)OCO3 (stereo not given) | No |
| C[P+]1(Cc2ccccc2)CCCC1 | No |
| COc1ccc(/C=N/Nc2nc3ccccc3c(=O)n2-c2ccccc2)c(OCc2ccccc2)c1 | No |
| CO[C@H]1[C@@H](O)[C@@H](C)O[C@@H](O[C@H]2CC[C@@]3(C)[C@H](CC[C@@H]4[C@@H]3CC[C@]3(C)[C@@H](C5=CC(=O)OC5)[C@@H](OC(C)=O)C[C@]43O)C2)[C@@H]1O [NERITALOSIDE] | Yes |
| CC(C)C(NCc1c2ccccc2[n+](C)c2ccccc12)C(=O)O (stereo not given) | No |
| O=C1OCC2(CO1)CC1C=CC2C1 (stereo not given) | No |
| CCCCCCCCCCCC[C@@H](O)[C@H]1CCC([C@H](O)CCCCC(=O)CCCCCCCC2=C[C@H](C)OC2=O)O1 (stereo not given in full) | No |
| COc1cc2c(cc1OC)C(=O)/C(=C/c1ccc(O)cc1)CC2 | No |
| Clc1ccc(OCc2nnc3sc(-c4ccc(-c5ccc(Cl)cc5Cl)o4)nn23)cc1 | No |
| Cc1ccc2c(c1)c1ccc3c(c1n2C)C(=O)C=CC3=O | No |
| COc1ccc(/C=C2\CCS(=O)(=O)c3ccccc3C2=O)cc1OC | No |
| CN(C)c1nc(NC23CC4CC(CC(C4)C2)C3)nc(N(C)C)n1 | No |
| COC(=O)C1=Nc2c(C)nn(-c3ccccc3)c2N=C(c2ccc(C)cc2)C1 | No |
| OC(c1cc(-c2ccccc2)nc2c1ccc1ccccc12)C1CCCCN1 (stereo not given) | No |
| Nc1nnc2nc(CC(=O)/C=C/c3ccccc3)c(=O)[nH]n12 | No |
| COc1ccc(-c2cc3ccccc3[nH]c2=O)cc1OC | No |
| O=S(=O)(O)c1cc2ccc1/C=C\c1ccc(cc1S(=O)(=O)O)/N=N\c1ccc(c(S(=O)(=O)O)c1)/C=C\c1ccc(cc1S(=O)(=O)O)/N=N\2 | No |
| C1CSCCSCCSCCSCCS1 | No |

====

For reference, GI50 measured on HCT-15:

| Compound | GI50 |
| --- | --- |
| CCOC(=O)/C(C#N)=N\Nc1ccc(-n2c(C)nc3ccccc3c2=O)cc1 | 62.1 µM |
| Clc1nss/c1=N/c1nonc1-c1ccccc1 | > 100 µM |
| CCOC(=O)C12CCC(=O)N1N(C)c1ncccc1N2 (stereo not given) | > 100 µM |
| CC1CC2CCCC(=O)C2=C(O)O1 (stereo not given) | > 100 µM |
| COc1cc2c(cc1OC)C(=O)/C(=C/c1ccc(O)cc1)CC2 | > 10 µM |
| CCOC(C)OC1CC(n2cc(C)c(=O)[nH]c2=O)OC1CO (stereo not given) | > 100 µM |
| Cc1ccc(S(=O)(=O)n2ccn3c(=O)cc(C)nc23)cc1 | > 10 µM |
| NC(=O)/N=C1\NCCC(=O)N1CCc1c[nH]c2ccccc12 | 20 µM |
| O=C(NC1=C(Cl)C(=O)c2ccccc2C1=O)C(=O)C(C(=O)c1ccc2ccccc2c1)C1OC(=O)c2ccccc21 (stereo not given) | 3.77 µM |
| C1=N\CCOCC/N=C/c2ccccc2OCc2cccc(n2)COc2ccccc2/1 | 6.46 µM |
| C[C@]12CC[C@@H]3c4ccc(O)cc4CC[C@H]3[C@@H]1C/C(=C\c1ccncc1)[C@@H]2O | 4.22 µM |
| Clc1ccc(OCc2nnc3sc(-c4ccc(-c5ccc(Cl)cc5Cl)o4)nn23)cc1 | > 100 µM |
| Cc1cccc(N2C(=O)C3ON(C(C(N)=O)c4ccccc4)C(c4c5ccccc5c(Cl)c5ccccc45)C3C2=O)c1C (stereo not given) | 7.38 µM |
| Cc1ccc(S(=O)(=O)n2cc(/C=C/C#N)c(-c3cn(S(=O)(=O)c4ccc(C)cc4)cc3-c3cn(S(=O)(=O)c4ccc(C)cc4)cc3/C=C/C#N)c2)cc1 | > 100 µM |
| CC/C(CC(=O)CCC(=O)Nc1c(C)cccc1C)=N\NC(=O)NN | > 100 µM |
| CC(C)(C)OC(=O)C1CCC/C1=N/Nc1ccc([N+](=O)[O-])cc1[N+](=O)[O-] (stereo not given) | 39.4 µM |
| Nc1nc(N)c2ncn(Cc3c(Cl)cccc3Cl)c2n1 | > 100 µM |
| N#CC(N)(C(=O)C(=O)NCCCNC(=O)C(=O)C(N)(C#N)c1ccc(Cl)cc1)c1ccc(Cl)cc1 (stereo not given) | > 100 µM |
| C[P+]1(Cc2ccccc2)CCCC1 | > 100 µM |
| Clc1ccc2c(c1)[nH]c1c2nc2sccn21 | > 100 µM |

====

Test system: IGROV-1
Assay: NCI tumour cell line growth inhibition, 48 h
Calls of active or inactive are those of the source. No stated cut-off is given here; in the data, active = GI50 up to about 1.1 µM and inactive = higher.

| Compound | GI50 |
| --- | --- |
| Cc1cc(N(CCOS(C)(=O)=O)CCOS(C)(=O)=O)ccc1/C=N/c1ccc(-c2nc(Cc3ccccc3)sc2C)cc1 | 10.7 µM (inactive) |
| CC1=COC(C)(C=C(C#N)C#N)CC1 (stereo unspecified) | 88.3 µM (inactive) |
| C1CSCCSCCSCCSCCS1 | > 100 µM (inactive) |
| N#Cc1ccc(C2OCC3CC=CCC3CO2)cc1 (stereo unspecified) | > 100 µM (inactive) |
| CCOc1cc(CC[N+](C)(C)C)c2c(ccc3ccc(OC)c(OC)c32)c1OC | > 100 µM (inactive) |
| CC(=O)NNc1nc(-c2ccc([N+](=O)[O-])cc2)c(C#N)c(=O)n1C | 16.8 µM (inactive) |
| CC1=CC(=O)/C(=C/NC(=S)c2ccccc2)C(=O)O1 | > 100 µM (inactive) |
| O=C(O)CCSC(=S)Nc1cccc(F)c1 | 29.2 µM (inactive) |
| O=c1ccc(=O)n(-c2ccccc2)[nH]1 | > 100 µM (inactive) |
| NC(=O)N/N=C(/CC1C(=O)Oc2ccccc21)c1ccccc1O (stereo unspecified) | 36.6 µM (inactive) |
| O=C(NC1=C(Cl)C(=O)c2ccccc2C1=O)C(=O)C(C(=O)c1ccc2ccccc2c1)C1OC(=O)c2ccccc21 (stereo unspecified) | 7.73 µM (inactive) |
